- system-name: Indoleamine 2,3-dioxygenase 1 (Homo sapiens, UniProt P14902)
- Sequence (P14902 whole entry): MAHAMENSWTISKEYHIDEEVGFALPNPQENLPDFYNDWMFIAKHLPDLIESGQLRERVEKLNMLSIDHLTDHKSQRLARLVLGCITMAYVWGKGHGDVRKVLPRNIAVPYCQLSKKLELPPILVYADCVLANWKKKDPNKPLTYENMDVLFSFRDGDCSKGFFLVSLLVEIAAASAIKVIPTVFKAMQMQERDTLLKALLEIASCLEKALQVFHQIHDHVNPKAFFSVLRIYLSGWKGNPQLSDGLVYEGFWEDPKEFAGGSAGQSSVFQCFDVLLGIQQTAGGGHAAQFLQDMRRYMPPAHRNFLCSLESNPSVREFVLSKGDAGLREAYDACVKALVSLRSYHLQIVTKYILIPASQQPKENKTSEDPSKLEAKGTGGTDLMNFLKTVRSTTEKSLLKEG
- protocol: Inhibition of IDO1 in human HeLa cells using L-tryptophan as substrate after 20 hrs
- Type: cell-based
Exercise: state measured IC50 for each of the molecules provided.
Write it as a number; the unit nM goes unstated.

Task item: Specify IC50 for NOC(c1ccccc1)c1cc(Cl)cc(Cl)c1 (stereo not given) and stop.
Reply: 870

Task item: Specify IC50 for NOC(c1ccccc1)c1ccc(F)cc1F (stereo not given) and stop.
Reply: 1210

Task item: Specify IC50 for NOC(c1ccccc1)c1cc(F)cc(F)c1 (stereo not given) and stop.
Reply: 357

Task item: Specify IC50 for NOC(c1ccccc1)C1CCCCC1 (stereo not given) and stop.
Reply: 21000

Task item: Specify IC50 for NOC(c1ccccc1)c1cccc(Br)c1 (stereo not given) and stop.
Reply: 590
